- SYSTEM: T1, hen egg-white lysozyme (HEL) (Gallus gallus, UniProt P00698)
- T1 construct: hen egg-white lysozyme (HEL); purchased Sigma
- T1 sequence (P00698 19-147): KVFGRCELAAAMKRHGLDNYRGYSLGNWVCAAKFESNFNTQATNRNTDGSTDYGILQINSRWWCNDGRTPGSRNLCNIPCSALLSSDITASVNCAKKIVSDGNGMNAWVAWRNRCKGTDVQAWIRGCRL
- EXPERIMENT: Titration of H4S conjugates with HEL, monitored by fluorescence
- Assay type: binding
- EXPERIMENTAL_CONDITIONS: decrease of free energy of interaction with HEL on fluorophore conjugation, from Kd of conjugate versus H4S(wt)
Please provide measured ΔΔG for the entries that follow.

Examples with answers:
[
  {
    "MOLECULE": "Lys28: H4S conjugate: residue Lys28 changed into cysteine and coupled with the IANBD fluorophore (conjugate) MRGSHHHHHHGSVKVKFFWNGEEKEVDTSKIVWVKRAGCSVLFIYDDNGKNGYGDVTEKDAPKELLDMLARAEREKKLN",
    "TEST_VALUE": "≤ 0.5 kcal/mol"
  },
  {
    "MOLECULE": "Thr46: H4S conjugate: residue Thr46 changed into cysteine and coupled with the IANBD fluorophore (conjugate) MRGSHHHHHHGSVKVKFFWNGEEKEVDTSKIVWVKRAGKSVLFIYDDNGKNGYGDVCEKDAPKELLDMLARAEREKKLN",
    "TEST_VALUE": "≤ 0.5 kcal/mol"
  },
  {
    "MOLECULE": "Asp44: H4S conjugate: residue Asp44 changed into cysteine and coupled with the IANBD fluorophore (conjugate) MRGSHHHHHHGSVKVKFFWNGEEKEVDTSKIVWVKRAGKSVLFIYDDNGKNGYGCVTEKDAPKELLDMLARAEREKKLN",
    "TEST_VALUE": "≥ 1.5 kcal/mol"
  },
  {
    "MOLECULE": "Tyr42: H4S conjugate: residue Tyr42 changed into cysteine and coupled with the IANBD fluorophore (conjugate) MRGSHHHHHHGSVKVKFFWNGEEKEVDTSKIVWVKRAGKSVLFIYDDNGKNGCGDVTEKDAPKELLDMLARAEREKKLN",
    "TEST_VALUE": "≥ 1.5 kcal/mol"
  }
]

// sample Trp22: H4S conjugate: residue Trp22 changed into cysteine and coupled with the IANBD fluorophore (conjugate) MRGSHHHHHHGSVKVKFFWNGEEKEVDTSKIVCVKRAGKSVLFIYDDNGKNGYGDVTEKDAPKELLDMLARAEREKKLN , its ΔΔG was ≥ 1.5 kcal/mol
